System: Plasmodium berghei
Test: Screen against P. berghei liver stage (PbLuc), transformed with Luciferase, at 10uM
Assay type: functional, HepG2
Settings: tested at 10 uM
Hit rate of the full screen: of about 69,000 compounds, about 8,600 (12%) showed an effect of 50% or more. Shown is part of a subset that was picked to be rich in strong results.
measurement kind: INHIBITION (%)
Entry rule: numbers only, all in %.

// below: answered compounds
response.value for CCC1CCC(NCCN2CCOCC2)CC1 (centres undefined) (field: INHIBITION) = 49.4

// sample CCN(Cc1cnn(C)c1)C[C@H]1CC[C@@H](Cc2ccc(CO)cc2)O1 , its INHIBITION was -5.78

Record CCCC(=O)NCC(Cc1cccc(F)c1)N1CCCC1=O (centres undefined) . Reported INHIBITION: 8.31

Note: attention shifts to another entry.
INHIBITION recorded for this compound, O=C(c1cnco1)N1CCCC(Cc2nccs2)C1 (centres undefined) , is 26.9

====

System: Plasmodium berghei
Experiment: Screen against P. berghei liver stage (PbLuc), transformed with Luciferase, at 10uM
Format: functional, HepG2
Details: tested at 10 uM
The campaign covered roughly 69,000 compounds. About 8,600 (12%) showed an effect of 50% or more. The sample as a whole holds a higher share of strong results than the screen did.
measurement kind: INHIBITION
Number plus unit, in that order.

A selection of reference data follows.
// recorded INHIBITION for CCC(NC(=O)COC)c1ccccc1OCC(=O)N1CCCC1 (stereo not drawn) : -4.65%

The value of INHIBITION measured for the molecule Cc1nsc(C(=O)NCCc2ccccc2)n1 turned out to be -67.9%

INHIBITION measured on Cc1nsc(C(=O)NCCc2cccs2)n1 = -12.1%

Input Cc1noc(C)c1CN1C[C@@H]2C[C@@H](C)O[C@@H]2C1 . Output INHIBITION: -10.2%

Entry Cn1nc(Cn2cccc2)c2c1CN(Cc1ccsc1)C2 , INHIBITION reported as -5.08%

The molecule listed as Cc1nsc(C(=O)NCCc2ccc(F)cc2)n1 has a reported INHIBITION of -10.6%

Others:
c1ccc(N2CCN(Cc3cnc(C4CCCCO4)nc3)CC2)nc1 (stereo not drawn) has a reported INHIBITION of 51.7%

====

Test system: Plasmodium berghei
Test: Screen against P. berghei liver stage (PbLuc), transformed with Luciferase, at 10uM
Type: functional, HepG2
Settings: tested at 10 uM
Out of some 69,000 compounds screened, about 8,600 (12%) showed an effect of 50% or more. For the sample, strong results were picked, then their nearest neighbours and some compounds at random.
molecules and their reported INHIBITION
Answer format: value, then unit.

For orientation, consider the following solved cases.
The molecule CC(C)N(C)CC(=O)NCC(Cc1ccc(F)cc1)C(N)=O (centres undefined) showed INHIBITION equal to -16%

For this molecule ( Cc1ccc(Cl)cc1NCc1nc2[nH]c(C)c(C)c(=O)n2n1 ), measured INHIBITION is 18.3%

INHIBITION measured on CN(C(=O)CNC(=O)CC(C)(C)C)C1CCN(c2ccccn2)CC1 = -11.5%

What the record says about CN(CCN1CCOCC1)S(=O)(=O)CC1CCCC1 : INHIBITION is 38.7%

Noted for CN(Cc1ccc(Cl)s1)C(=O)CN(C)C1CCc2ccccc21 (centres undefined) : its INHIBITION reads 82.5%

Lab book: INHIBITION of CN1CCN(CCCN(C)S(=O)(=O)CC2CCCCC2)CC1 noted as 54.4%

Sure, the documented INHIBITION for CCn1c(CN(C)Cc2cnc(C)s2)nc2c(F)cccc21 is 37.8%

Notebook: CN(Cc1cccs1)C(=O)CN(C)C1CCc2ccccc21 (centres undefined) , INHIBITION read as 47.4%

New cases:
Field INHIBITION (entry COc1ccccc1CCNC(=O)CNCC1CN(C)CCO1 (centres undefined) ) reads 11%

For record CN1CCN(CCCNC(=O)C2CCCCC2)CC1 the listed INHIBITION is -24%

# INHIBITION (molecule: CCOc1cccc(C(=O)Nc2ccn(CC)n2)c1 ) is -35.4%

The measured INHIBITION associated with CN(CCC#N)C(=O)CN(C1CC1)C1CCc2ccccc21 (centres undefined) reads -4.15%

// field: INHIBITION; key: Cc1cc(C2CCC2)nc(NCC(C)(C)N2CCCC2)n1 ; value = 57.2%

# INHIBITION of Cc1cc(C)cc(OCCN(C)Cc2cscn2)c1 = 28.1%

Please fill in: INHIBITION reported for Cc1n[nH]c(C)c1C1COCCN1C(=O)c1n[nH]c2ccccc12 (centres undefined) = -2.25%
